System: DU-145
Test: NCI 60 human tumor cell line screen (SRB)
Assay type: cell-based
Conditions: DU-145 (Prostate Cancer); 48 h
REPORTED METRIC: Log10GI50

[[record]]
sample_smiles = "C[C@]1(C(=O)[C@H](Cc2ccccc2)NC(=O)[C@H](Cc2ccccc2)NC(=O)[C@H](COC(F)F)NC(=O)CN2CCOCC2)CO1"
reported_metric = "Log10GI50"
quantitative_result = "−7.00"

[[record]]
sample_smiles = "C[C@]1(C(=O)[C@H](Cc2ccccc2)NC(=O)[C@H](COC(F)F)NC(=O)[C@H](COC(F)F)NC(=O)CN2CCOCC2)CO1"
reported_metric = "Log10GI50"
quantitative_result = "−7.27"

[[record]]
sample_smiles = "CC(C)C[C@H](NC(=O)[C@H](Cc1ccccc1)NC(=O)[C@H](COC(F)F)NC(=O)CN1CCOCC1)C(=O)[C@@]1(C)CO1"
reported_metric = "Log10GI50"
quantitative_result = "−7.27"

[[record]]
sample_smiles = "Cc1ncc(C(=O)N[C@@H](COC(F)F)C(=O)N[C@@H](COC(F)F)C(=O)N[C@@H](Cc2ccccc2)C(=O)[C@@]2(C)CO2)s1"
reported_metric = "Log10GI50"
quantitative_result = "−6.58"

